Tested on: DLD-1
measurement-description: NCI tumour cell line growth inhibition, 48 h
Activity calls are given as the source filed them. No stated cut-off is given here; in the data, active = GI50 up to about 1.1 µM and inactive = higher.
Give your call using only these classes: 1 = active, 0 = inactive

Consider the following illustrative entries.
{"molecule": "OCC(O)C(OC1OC(CO)C(O)C(O)C1O)c1nn(-c2ccccc2)c2nc3cc(Cl)ccc3nc12 (stereo not drawn)", "category": 0}
{"molecule": "CC(C)(C)C1CC[C@H]2c3c([nH]c4ccccc34)[C@H]3C(=O)N(c4ccc(F)cc4)C(=O)[C@H]3[C@H]2C1 (stereo partly drawn)", "category": 0}
{"molecule": "C=CCc1cccc(/C=N\\N/C(N)=N/O)c1O", "category": 0}
{"molecule": "COc1ccccc1NC(=O)C1=C(C)NC(C)=C(C(=O)Nc2ccccc2OC)C1c1ccccc1[N+](=O)[O-]", "category": 0}
{"molecule": "CC(=O)OC1(C(C)=O)CC2(c3ccccc3)OC1(c1ccccc1)c1ccccc12 (stereo not drawn)", "category": 0}

Ask: Which result was noted for this molecule in the test: O=C1/C(=C/c2ccc3c(c2)OCO3)SC2C=Nc3ccccc3N12 (stereo not drawn)
Result: 0

Ask: Given CC(=O)OC1CC2(O)C(CCC3(C)C(c4ccc(=O)oc4)CCC32O)C2(C)C1=CC(O)C1OC12 (stereo not drawn) , state the outcome it received in this test.
Result: 1
